A short record of Ki observed with Coagulation factor X (Homo sapiens, UniProt P00742) follows.
Sequence (P00742 41-179 limits assumed): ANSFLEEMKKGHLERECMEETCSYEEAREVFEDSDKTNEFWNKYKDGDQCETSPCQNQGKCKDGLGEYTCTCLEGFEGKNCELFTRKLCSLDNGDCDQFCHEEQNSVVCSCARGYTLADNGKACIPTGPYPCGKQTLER
Sequence (P00742 235-488 limits assumed): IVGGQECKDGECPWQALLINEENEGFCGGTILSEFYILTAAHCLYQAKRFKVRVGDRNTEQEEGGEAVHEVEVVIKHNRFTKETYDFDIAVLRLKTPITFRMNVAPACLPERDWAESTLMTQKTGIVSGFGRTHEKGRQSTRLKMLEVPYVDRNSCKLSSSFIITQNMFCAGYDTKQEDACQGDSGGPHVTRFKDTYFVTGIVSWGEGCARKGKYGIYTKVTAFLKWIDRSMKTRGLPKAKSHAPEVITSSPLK

{"compound structure": "C/C(=N\\NC(=N)N)c1cc(NC(=O)[C@H](N)CCCNC(=N)N)cc(/C(C)=N/NC(=N)N)c1", "Ki": "1000 µM"}
{"compound structure": "C/C(=N\\NC(=N)N)c1cc(NC(=O)CCCCNC(=N)N)cc(/C(C)=N/NC(=N)N)c1", "Ki": "1000 µM"}
{"compound structure": "C/C(=N\\NC(=N)N)c1cc(NS(=O)(=O)c2ccccc2)cc(/C(C)=N/NC(=N)N)c1", "Ki": "80 µM"}
{"compound structure": "C/C(=N\\NC(=N)N)c1cc(NC(=O)CCCCCNC(=N)N)cc(/C(C)=N/NC(=N)N)c1", "Ki": "1000 µM"}
{"compound structure": "C/C(=N\\NC(=N)N)c1cc(NC(=O)CCCNC(=N)N)cc(/C(C)=N/NC(=N)N)c1", "Ki": "16 µM"}

Attention now turns to another entry.
Please look up its Ki: C/C(=N\NC(=N)N)c1cc(NC(=O)CCCN)cc(/C(C)=N/NC(=N)N)c1
1000 µM

----------
- system tested: Furin (Homo sapiens, UniProt P09958)
- Sequence (P09958 whole entry): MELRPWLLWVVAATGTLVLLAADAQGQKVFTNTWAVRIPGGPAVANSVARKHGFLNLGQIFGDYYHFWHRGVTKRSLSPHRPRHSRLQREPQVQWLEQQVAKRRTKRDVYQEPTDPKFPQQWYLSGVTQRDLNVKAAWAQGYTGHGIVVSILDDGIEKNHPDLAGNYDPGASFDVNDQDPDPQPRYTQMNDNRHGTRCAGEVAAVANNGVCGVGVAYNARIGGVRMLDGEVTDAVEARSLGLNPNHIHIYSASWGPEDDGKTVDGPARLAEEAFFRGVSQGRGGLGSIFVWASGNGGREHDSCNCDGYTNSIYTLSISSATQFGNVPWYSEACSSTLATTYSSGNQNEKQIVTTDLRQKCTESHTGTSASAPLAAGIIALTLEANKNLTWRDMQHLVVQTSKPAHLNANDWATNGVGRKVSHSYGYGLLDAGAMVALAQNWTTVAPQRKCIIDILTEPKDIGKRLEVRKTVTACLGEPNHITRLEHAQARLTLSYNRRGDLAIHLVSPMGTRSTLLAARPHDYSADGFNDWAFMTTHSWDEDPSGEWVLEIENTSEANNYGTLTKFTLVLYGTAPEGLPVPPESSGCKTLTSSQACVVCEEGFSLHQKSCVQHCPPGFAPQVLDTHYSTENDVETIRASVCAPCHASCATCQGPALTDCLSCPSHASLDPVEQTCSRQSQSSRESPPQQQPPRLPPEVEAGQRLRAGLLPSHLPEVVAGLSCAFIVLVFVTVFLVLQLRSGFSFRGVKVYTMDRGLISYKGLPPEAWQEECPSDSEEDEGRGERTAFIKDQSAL
- protocol: Inhibition of human recombinant furin by fluorescence plate reader analysis
# pKi per entry
Reminder that pKi is minus the log10 of a molar concentration.

In the examples that follow, each entry is paired with its recorded pKi.
{"compound structure": "C/C(=N/NC(=N)N)c1cc(NC(=O)CC(=O)Nc2cc(/C(C)=N/NC(=N)N)cc(/C(C)=N/NC(=N)N)c2)cc(/C(C)=N/NC(=N)N)c1", "pKi": 5.95}
{"compound structure": "C/C(=N\\NC(=N)N)c1ccc(/C(C)=N/NC(=N)N)cc1", "pKi": 5.74}
{"compound structure": "C/C(=N\\NC(=N)N)c1cc(NC(=O)CCCCCNC(=N)N)cc(/C(C)=N/NC(=N)N)c1", "pKi": 5.85}

Please look up its pKi: C/C(=N/NC(=N)N)c1cc(NC(=O)COc2ccccc2)cc(/C(C)=N/NC(=N)N)c1
5.25

Please look up its pKi: C/C(=N/NC(=N)N)c1cccc(OCC(=O)Nc2cc(/C(C)=N\NC(=N)N)cc(/C(C)=N/NC(=N)N)c2)c1
5.84

Please look up its pKi: NC(N)=NNC(=O)c1ccc(C(=O)NN=C(N)N)cc1
3.76

----------
- system tested: Prothrombin (Homo sapiens)
- protocol: Inhibition of thrombin
outcome measure: Ki (µM)
Output spec: scalar in µM, unitless text.

{"compound structure": "N=C(N)N/N=C/c1ccc(/C=N/NC(=N)N)cc1", "outcome measure": "Ki", "data value": 68}

Please look up its Ki: C/C(=N\NC(=N)N)c1cc(NC(=O)CCCN)cc(/C(C)=N/NC(=N)N)c1
1000

Please look up its Ki: C/C(=N\NC(=N)N)c1cc(NC(=O)CCCNC(=N)N)cc(/C(C)=N/NC(=N)N)c1
800

Please look up its Ki: C/C(=N\NC(=N)N)c1cc(NS(=O)(=O)c2ccccc2)cc(/C(C)=N/NC(=N)N)c1
32

Please look up its Ki: C/C(=N\NC(=N)N)c1cc(NC(=O)CCCCNC(=N)N)cc(/C(C)=N/NC(=N)N)c1
1000

All values here come from ChEMBL document CHEMBL1641437.
